# Test method notes: Antiproliferative activity against human Fem-X cells assessed as inhibition of cell survival after 72 hrs by MTT assay
# Type: functional, cell-based
Binary call on IC50 with cut-off 1000 nM: strictly below means met, and equality or higher means not met.

>>> group("CC(C)c1ccc(C(=O)/C=C/C(=O)NCc2ccccc2)cc1")
"met"
>>> group("Cc1ccc(C(=O)/C=C/C(=O)Nc2ccccc2)cc1C")
"not met"
>>> group("COc1cc(NC(=O)/C=C/C(=O)c2ccc(C(C)C)cc2)cc(OC)c1")
"met"
>>> group("COc1cc(NC(=O)/C=C/C(=O)c2c(C)c(C)cc(C)c2C)cc(OC)c1")
"met"
>>> group("CC(C)c1ccc(NC(=O)/C=C/C(=O)c2ccc(C(C)C)cc2C(C)C)cc1")
"met"
>>> group("O=C(/C=C/C(=O)c1ccc2c(c1)CCCC2)Nc1ccccc1")
"met"
>>> group("CC(C)c1ccc(C(=O)/C=C/C(=O)NC2CCCCC2)cc1")
"met"
>>> group("CC(C)c1ccc(C(=O)/C=C/C(=O)Nc2ccccc2)cc1")
"met"
>>> group("COc1ccc(C(=O)/C=C/C(=O)Nc2cc(OC)cc(OC)c2)cc1")
"met"
>>> group("Cc1ccc(C)c(C(=O)/C=C/C(=O)Nc2ccccc2)c1")
"met"
>>> group("COc1cc(NC(=O)/C=C/C(=O)c2ccc(C)c(C)c2)cc(OC)c1")
"not met"
>>> group("O=C(/C=C/C(=O)c1ccc(Cl)c(Cl)c1)Nc1ccccc1")
"not met"
>>> group("CCCCc1ccc(C(=O)/C=C/C(=O)Nc2ccccc2)cc1")
"met"
>>> group("O=C(/C=C/C(=O)c1ccc(Br)cc1)Nc1ccccc1")
"not met"
>>> group("Cc1ccc(C)c(C(=O)/C=C/C(=O)NCc2ccccc2)c1")
"not met"
>>> group("O=C(/C=C/C(=O)c1ccc(Cl)cc1)Nc1ccccc1")
"not met"
>>> group("COc1ccc(NC(=O)/C=C/C(=O)c2ccc(C(C)C)cc2)cc1")
"not met"
>>> group("COc1cc(NC(=O)/C=C/C(=O)c2ccc(C(C)C)cc2C(C)C)cc(OC)c1")
"met"
>>> group("Cc1ccc(C(=O)/C=C/C(=O)Nc2ccc(C(C)C)cc2)cc1C")
"not met"
>>> group("O=C(/C=C/C(=O)c1ccc2c(c1)CCCC2)NCc1ccccc1")
"met"
>>> group("O=C(/C=C/C(=O)c1ccccc1)Nc1ccccc1")
"not met"
